# system: Calmodulin-1 (Homo sapiens) (UniProt P0DP23)
# run_description: calcium-bound CALM1 binders on microarrays, profiling panel, artefact control for SMM control-protein annotation, biochemical, small-molecule microarray, Cy5-labelled CALM1, plus calcium (AID 1112);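 note: score merges spot fluorescence with signal to noise from triplicate slides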
# condition_parameters: Cy5-CALM1 binding fluorescence, higher = more signal
We use 0.6 as the dividing line for composite z-score: on or above the line is Condition met, below is Condition not met.

hey, is composite z-score for this one >= 0.6? Cc1ccc(S[C@]2(C(=O)NCc3ccccc3)CC(=O)N(Cc3ccccc3C(F)(F)F)[C@@H]2c2ccc(CO)cc2I)cc1
Condition not met

Hello, I need to know if CN1C(=O)C2C=CC(C(O)c3ccc([N+](=O)[O-])cc3)N(Nc3ccccc3)C2C1=O (configuration not stated) has measured composite z-score not below 0.6. Thanks!
Condition met

Decide: composite z-score of CO[C@H]1O[C@H](CO)[C@@H](OC(=O)CCc2ccccc2)[C@@H]2OC(=O)[C@@H](Cc3ccc4ccccc4c3)C/C=C/C[C@H](Cc3ccc4ccccc4c3)C(=O)O[C@@H]12 >= 0.6?
Condition not met

Does the reported composite z-score for O=C1C2C=CC(C(O)C3CCCCC3)N(Nc3ccccc3F)C2C(=O)N1c1ccccc1 (configuration not stated) fall at or above the 0.6 mark?
Condition met

Say whether O=C1O[C@H](c2ccccc2)[C@H](c2ccccc2)N2[C@H]1[C@@H](C(=O)O)[C@]1(C(=O)Nc3ccccc31)[C@H]2c1ccc(OCCO)cc1 shows composite z-score of 0.6 or more.
Condition not met

Does the compound COC(=O)C1(CC(C)C)C=C2C(=C(C)C(=O)C2C)CN1 (configuration not stated) have recorded composite z-score that is 0.6 or more?
Condition met

Please tell me: is the compound C=C(CC1([C@@H](NP(=O)(c2ccccc2)c2ccccc2)[C@H]2C[C@@H]2CCCC)CC1)c1cccc(OC)c1 at or over 0.6 in terms of composite z-score?
Condition met

Assess whether reported composite z-score for C=CC[C@H](O)c1ccc(O)c2ccccc12 sits at 0.6 or higher.
Condition not met

Item CC[C@@H](O[Si](C#C[Si](C(C)C)(C(C)C)C(C)C)(C(C)C)C(C)C)c1cn(Cc2cccc(Cl)c2)nn1 with composite z-score of 0.6 or above?
Condition not met

Reported composite z-score reaches at least 0.6 for CCN1C(=O)C2CC(=O)C3C(CN(S(=O)(=O)c4ccc(C)cc4)C3c3ccc(C)cc3)C2C1=O (configuration not stated) ?
Condition not met

Say whether C=C[C@@H](CO)NS(=O)(=O)c1ccc(Br)cc1 shows composite z-score of 0.6 or more.
Condition not met

Could you tell me if the measured composite z-score of [N-]=[N+]=Nc1ccccc1C[C@]1(C(=O)N2CCCCC2)N=C(c2ccc(OCCCO)cc2)O[C@H]1c1ccccc1 reaches 0.6 or more?
Condition met

Threshold query (composite z-score >= 0.6) on CCCC1(C(=O)OC)C=C2C(=C(C(C)C)C(=O)C2C)CN1 (configuration not stated)
Condition met

I'd appreciate it if you could say whether CN1C(=O)C2C(C1=O)C1C=C(CCCO)C2C(C2CC2)N1C (configuration not stated) has composite z-score at least equal to 0.6.
Condition not met

In plain terms: is recorded composite z-score at least 0.6 for O=C1OCCC/C=C\[C@H]2OC34C=CCN(Cc5ccccc5)C(=O)[C@H]3N(CCO)C(=O)[C@@H]4C12 (some centres not stated) ?
Condition met

Kindly determine if composite z-score recorded for CCCCCCc1nc(-c2ccc(OC)nc2)c(C)c2c1[Si](C(C)C)(C(C)C)OC2 is above or exactly 0.6.
Condition not met

Reported composite z-score reaches at least 0.6 for CC(C)(C)OC(=O)N1[C@@H](C=C(Br)Br)COC1(C)C ?
Condition not met

Exam item: decide whether the reported composite z-score for C=CCOC(=O)[C@H]1[C@@H]2C(=O)O[C@@H](c3ccccc3)[C@@H](c3ccccc3)N2[C@@H](c2ccc(OCCOC(=O)[C@H]3C[C@H]4C(=O)NCC(=O)N4[C@H]3c3ccc(O)cc3)cc2)[C@]12C(=O)Nc1ccccc12 is at least 0.6.
Condition not met

composite z-score >= 0.6 for COc1ccc(CCNC(=O)[C@@]2(C)c3ccccc3C(=O)N(Cc3ccc(OC(F)(F)F)cc3)[C@H]2c2ccc(CO)cc2)cc1 ?
Condition not met

Reported composite z-score reaches at least 0.6 for COc1ccc(CCNC(=O)[C@@]2(c3ccc([N+](=O)[O-])cc3)CC(=O)N(C3CCCCC3)[C@@H]2c2ccc(CO)cc2I)cc1 ?
Condition not met

Is the recorded value of composite z-score equal to or greater than 0.6 for this compound? CC(C)Cc1ccc(CN2CC[C@@H](NC(=O)c3ccccc3)C2)cc1
Condition not met

hey, is composite z-score for this one >= 0.6? CCOC(=O)C1=C[C@@H](C(C)(C)C)N(S(=O)(=O)c2ccc(C)cc2)[C@H]1c1ccc(OC)cc1
Condition not met

Determine whether this compound has composite z-score no lower than 0.6: CC1(C)OB(/C=C\CC(OC(=O)c2ccncc2)c2ccccc2)OC1(C)C (configuration not stated)
Condition not met

API: above_or_equal(metric=composite z-score, cutoff=0.6) for item CCCCCN1CC=CC23O[C@@H]4/C=C\CCCOC(=O)C4[C@H]2C(=O)N(CCCCCO)[C@@H]3C1=O (some centres not stated)
Condition not met

Hello, I need to know if COCCCNC(=O)[C@@]1(CCC(=O)OC(C)(C)C)N=C(c2ccc(OCCCO)cc2)O[C@H]1c1ccccc1 has measured composite z-score not below 0.6. Thanks!
Condition met

composite z-score >= 0.6 for C=CCC(OC(C)=O)[C@@H]1[C@@H](N(Cc2ccc(-c3ccccc3)cc2)C(=O)Cc2ccc(OC)cc2)c2cc(OCCCO)ccc2N1C(=O)Cc1ccc(OC)cc1 (some centres not stated) ?
Condition met

I'd appreciate it if you could say whether C=CCNC(=O)[C@@H]1[C@H]2C(=O)O[C@H](c3ccccc3)[C@H](c3ccccc3)N2[C@H](c2ccc(OCCO)cc2)[C@@]12C(=O)Nc1ccc(C#CC3=CCCCC3)cc12 has composite z-score at least equal to 0.6.
Condition not met

Kindly determine if composite z-score recorded for O=C(CS)NCCCCCCNC(=O)[C@H]1C[C@H]2C(=O)NCC(=O)N2[C@H]1c1cccc(OCCO)c1 is above or exactly 0.6.
Condition not met

Is composite z-score for CCOC(=O)C1=CCC(c2ccncc2)N(S(=O)(=O)c2ccc(C)cc2)C1 (configuration not stated) at or above 0.6?
Condition not met

Determine whether measured composite z-score meets or exceeds 0.6 for COC(=O)[C@@]1(Cc2ccc(F)cc2)[C@H]2c3cc(C(=O)N(C)C)n(Cc4ccc(C(F)(F)F)nc4)c3C[C@H]2CN1C(=O)c1ccccc1
Condition met

Does composite z-score meet or surpass 0.6 for CC1C2C(CCCO)=CC(C3C(=O)N(C)C(=O)C23)N1Cc1cccc(OC(F)(F)F)c1 (configuration not stated) ?
Condition met

---

# run_description: MM1S cell viability effects, profiling panel, calcein-AM fluorescence, 48 h, basal (AID 1165);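 note: viability of MM1S multiple myeloma cells under basal unstimulated conditions; test concentration not given here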
# condition_parameters: higher = more signal
I would appreciate it if you labelled entries TRUE when z-score is -0.3 or higher, otherwise FALSE.

Entry C=C(CCCC)/C(=C/C[C@@H](OC(C)=O)c1ccc(OCCO)cc1)c1cc(C(=O)OC)ccc1OC : is its z-score no less than -0.3?
FALSE

Quick check, z-score >= -0.3? C[C@]1(C(=O)O)c2ccccc2C(=O)N(Cc2cc(C(F)(F)F)cc(C(F)(F)F)c2)[C@H]1c1ccc(CO)cc1
TRUE

# bool: z-score of COCCCNC(=O)[C@]1(Cc2ccccc2CN=[N+]=[N-])N=C(c2ccc(OCCCO)cc2)O[C@@H]1c1ccccc1N=[N+]=[N-] >= -0.3
FALSE

Given the entry N#Cc1ccc(NN2C(C(O)c3ccc(B(O)O)cc3)C=CC3CN(c4ccccc4)C(=O)C32)cc1 (configuration not stated) , answer whether its z-score meets or surpasses -0.3.
TRUE

Entry CC(C)C[C@@H]1NC(=O)[C@@H]2C[C@H](C(=O)NCCCCCNC(=O)CS)[C@H](c3ccc(O)cc3)N2C1=O : is its z-score no less than -0.3?
TRUE

# check: z-score of O=C1O[C@H](c2ccccc2)[C@H](c2ccccc2)N2[C@H]1[C@@H](C(=O)O)[C@]1(C(=O)Nc3ccc(C#CC4(O)CCCCCC4)cc31)[C@H]2c1ccccc1OCCO is greater than or equal to -0.3
FALSE

Can COc1cccc(C)c1NC(=O)O[C@H]1[C@H](OC(=O)Nc2ccc3c(c2)OCO3)[C@H](OC(=O)Nc2ccc3c(c2)OCO3)[C@@H](OC)O[C@@H]1CO be said to have z-score at or above -0.3?
FALSE

---

# run_description: inhibitors of hydroxyurea-induced Chk1 phosphorylation, primary screen, imaging, HeLa, phospho-Chk1 antibody, percent positive cells (AID 1186)
# condition_parameters: hydroxyurea-induced phospho-Chk1 immunofluorescence imaging, higher = more signal
Activity calls are given as the source filed them. No rule for the calls is given here.
property: z-score

Field request: z-score | item: COC(=O)C1=CC(c2ccc(CO)cc2)=CC(C2CC2)N(Cc2cc3c(cc2Br)OCO3)C=C1C(=O)OC (configuration not stated)
0.0404 (inactive)

Quick check: z-score of Cc1ccc(N2C(=O)c3ccccc3[C@@H](C(=O)NCCN3CCOCC3)[C@@H]2c2ccc(CO)cc2)nc1 ?
0.0197 (inactive)

z-score for [N-]=[N+]=Nc1ccccc1C[C@]1(C(N)=O)COC(c2ccc(OCCCO)cc2)=N1 ?
-0.393 (inactive)

Any idea what its z-score is? The molecule is COCCOC(=O)N1C(=O)[C@@]2(c3cc(C#CCNC(N)=O)ccc31)[C@H](C(=O)N1CCN(c3ncccn3)CC1)[C@H]1C(=O)O[C@H](c3ccccc3)[C@H](c3ccccc3)N1[C@@H]2c1ccc(O)cc1
-0.171 (inactive)

Give its z-score value. Item: COc1ccc([Si](C)(C)[C@H]2[C@H](CC(=O)N(CCO)Cc3ccccc3)O[C@@]3(C(=O)N(Cc4cccc(N5CCCCC5=O)c4)c4ccccc43)[C@@H]2C)cc1
-0.929 (inactive)

Can you share its z-score? I mean this molecule: CC1CC/C=C\[C@H]2OC34C=CCN(C(C)C)C(=O)[C@H]3N(C(C)CO)C(=O)[C@@H]4C2C(=O)O1 (some centres not stated)
-0.829 (inactive)

Give its z-score value. Item: O=C1C2C=CC(C(O)C3CCCCC3)N(Nc3ccccc3F)C2C(=O)N1c1ccccc1 (configuration not stated)
0.0253 (inactive)
